B1: Glucocorticoid receptor, residues 419 to 494; numbered along this chain, P04150 (parent)
chain: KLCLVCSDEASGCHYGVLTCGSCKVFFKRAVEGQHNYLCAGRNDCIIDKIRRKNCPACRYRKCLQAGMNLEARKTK

variants of: B1; test: abundance fitness (aPCA) (normalised: wild type 0, dead -1); higher = more abundant; growth selection in yeast, the domain comes from the species named; conditions: Homo sapiens
property_label: abundance fitness
Provide a numeric answer; units are not to be included.

Reported abundance fitness for A10E : what is it?
-0.287

Reported abundance fitness for N54Y : what is it?
0.014

Reported abundance fitness for C3Y : what is it?
-0.764

Reported abundance fitness for G41C : what is it?
-0.005

Reported abundance fitness for R29F : what is it?
-0.152

Reported abundance fitness for A30L : what is it?
-0.32

Reported abundance fitness for K24S : what is it?
0.062

Reported abundance fitness for A30S : what is it?
-0.08

Reported abundance fitness for G21D : what is it?
-0.009

Reported abundance fitness for H35F : what is it?
0.013

Reported abundance fitness for R52M : what is it?
-0.101

Reported abundance fitness for R42G : what is it?
0.009

Reported abundance fitness for K1H : what is it?
-0.304

Reported abundance fitness for V17H : what is it?
-0.371
